Source: paper PMC6028563

# System: recombinant human MAO-B (Homo sapiens)
# Construct: purchased Sigma-Aldrich M7441; host or cells: baculovirus-infected insect cells
# Sequence (P27338 1-520): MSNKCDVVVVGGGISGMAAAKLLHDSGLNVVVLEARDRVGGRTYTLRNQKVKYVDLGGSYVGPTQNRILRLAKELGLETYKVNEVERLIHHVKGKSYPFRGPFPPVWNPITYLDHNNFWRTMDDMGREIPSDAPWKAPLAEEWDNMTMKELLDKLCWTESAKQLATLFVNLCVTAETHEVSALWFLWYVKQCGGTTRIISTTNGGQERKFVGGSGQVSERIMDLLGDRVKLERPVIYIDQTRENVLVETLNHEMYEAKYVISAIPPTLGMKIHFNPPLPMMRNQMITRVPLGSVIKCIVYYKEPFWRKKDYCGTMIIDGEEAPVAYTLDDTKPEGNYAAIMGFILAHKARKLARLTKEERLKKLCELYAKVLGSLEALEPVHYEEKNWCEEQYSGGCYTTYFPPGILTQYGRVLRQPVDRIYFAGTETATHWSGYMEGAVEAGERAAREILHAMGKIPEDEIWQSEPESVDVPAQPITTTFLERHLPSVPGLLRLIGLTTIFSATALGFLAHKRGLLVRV
# Assay Notes: Monoamine oxidase assay (Amplex Red), MAO-B
# Assay type: biochemical
# Test Conditions: at 10,000 nM (10 μM); read-out: % inhibition at indicated concentration, Human MAO-B
Task for the reader: assign each of the following compounds its reported inhibition at 10 µM.
Entry rule: numbers only, all in %.

Tested system recombinant human MAO-B (Homo sapiens); inhibition at 10 µM recorded for CCn1c(=O)c2c(nc(/C=C/c3ccc(OC)c(OC)c3)n2C)n(CC)c1=O [Istradefylline, istradefylline, reference compound] was 20

Tested system recombinant human MAO-B (Homo sapiens); inhibition at 10 µM recorded for C#CCn1c(=O)c2c(nc3n2CCN(Cc2ccccc2OC)C3)n(CC)c1=O [Compound 20f] was 27

Tested system recombinant human MAO-B (Homo sapiens); inhibition at 10 µM recorded for Cn1c(=O)[nH]c(=O)c2c1nc1n2CCN(CCc2cccc(Cl)c2)C1 [Compound 13c] was 54

Tested system recombinant human MAO-B (Homo sapiens); inhibition at 10 µM recorded for CCn1c(=O)c2c(nc3n2CCN(Cc2ccc(Cl)cc2C(F)(F)F)C3)n(CC)c1=O [Compound 15o] was 5

Tested system recombinant human MAO-B (Homo sapiens); inhibition at 10 µM recorded for CCn1c(=O)c2c(nc3n2CCN(Cc2cc(C(F)(F)F)ccc2F)C3)n(CC)c1=O [Compound 15j] was 58

Tested system recombinant human MAO-B (Homo sapiens); inhibition at 10 µM recorded for CCn1c(=O)c2c(nc3n2CCN(Cc2ccccc2F)C3)n(CC)c1=O [Compound 15a] was 22

Tested system recombinant human MAO-B (Homo sapiens); inhibition at 10 µM recorded for CCn1c(=O)c2c(nc3n2CCN(Cc2cc(C(F)(F)F)ccc2Cl)C3)n(CC)c1=O [Compound 15n] was 54

Tested system recombinant human MAO-B (Homo sapiens); inhibition at 10 µM recorded for CCn1c(=O)c2c(nc3n2CCN(Cc2ccccc2C(F)(F)F)C3)n(CC)c1=O [Compound 15f] was 41

====

# System: rat A2A AR (Rattus norvegicus)
# Construct: A2A ARs of rat brain striatal membrane preparations; from tissue; host or cells: rat brain striatum membranes
# Sequence (P30543 whole entry): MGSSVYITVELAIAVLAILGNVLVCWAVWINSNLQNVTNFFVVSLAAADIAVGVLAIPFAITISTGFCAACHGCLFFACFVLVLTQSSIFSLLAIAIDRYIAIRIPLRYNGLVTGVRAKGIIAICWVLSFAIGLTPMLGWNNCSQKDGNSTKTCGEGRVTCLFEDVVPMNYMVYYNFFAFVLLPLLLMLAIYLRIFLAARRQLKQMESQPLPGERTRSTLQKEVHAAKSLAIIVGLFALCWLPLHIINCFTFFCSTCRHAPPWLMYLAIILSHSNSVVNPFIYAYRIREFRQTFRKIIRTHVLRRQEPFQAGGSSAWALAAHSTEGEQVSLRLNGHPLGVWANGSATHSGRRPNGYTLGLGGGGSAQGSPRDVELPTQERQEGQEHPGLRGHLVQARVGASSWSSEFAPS
# Assay Notes: Radioligand binding assay at rat A2A AR (rat brain striatum) vs. [^3H]MSX-2
# Test Conditions: rat (r); rat brain striatum; n = 3; read-out: Ki ± SEM, A2A vs. [^3H]MSX-2
Quantity Kind: Ki

Noted for Cn1c(=O)[nH]c(=O)c2c1nc1n2CCN(CCc2ccc(Cl)c(Cl)c2)C1 [Compound 13g] : its Ki reads > 1 µM

Noted for CCn1c(=O)c2c(nc3n2CCN(Cc2ccc(Cl)c(C(F)(F)F)c2)C3)n(CC)c1=O [Compound 15p] : its Ki reads > 1 µM

Noted for CCn1c(=O)c2c(nc3n2CCN(Cc2ccc(Br)cc2)C3)n(CC)c1=O [Compound 15e] : its Ki reads 1.14 µM

Noted for CCn1c(=O)c2c(nc3n2CCN(Cc2ccc(Cl)cc2C(F)(F)F)C3)n(CC)c1=O [Compound 15o] : its Ki reads > 1 µM

Noted for CCn1c(=O)c2c(nc3n2CCN(Cc2ccc(C(F)(F)F)cc2)C3)n(C)c1=O [Compound 14f] : its Ki reads > 1 µM

Noted for C#CCn1c(=O)c2c(nc3n2CCN(CCc2cccc(OC)c2)C3)n(CC)c1=O [Compound 20j] : its Ki reads 0.798 µM

Noted for CCn1c(=O)n(C)c(=O)c2c1nc1n2CCN(Cc2cc(Cl)cc(Cl)c2)C1 [Compound 16b] : its Ki reads 1.49 µM

Noted for CCn1c(=O)c2c(nc3n2CCN(Cc2cccc(C(F)(F)F)c2)C3)n(C)c1=O [Compound 14e] : its Ki reads 0.708 µM
